Note to self: these molecules have pKi reported for Orexin/Hypocretin receptor type 1 (Homo sapiens, UniProt O43613) in various publications.
Sequence (O43613 whole entry): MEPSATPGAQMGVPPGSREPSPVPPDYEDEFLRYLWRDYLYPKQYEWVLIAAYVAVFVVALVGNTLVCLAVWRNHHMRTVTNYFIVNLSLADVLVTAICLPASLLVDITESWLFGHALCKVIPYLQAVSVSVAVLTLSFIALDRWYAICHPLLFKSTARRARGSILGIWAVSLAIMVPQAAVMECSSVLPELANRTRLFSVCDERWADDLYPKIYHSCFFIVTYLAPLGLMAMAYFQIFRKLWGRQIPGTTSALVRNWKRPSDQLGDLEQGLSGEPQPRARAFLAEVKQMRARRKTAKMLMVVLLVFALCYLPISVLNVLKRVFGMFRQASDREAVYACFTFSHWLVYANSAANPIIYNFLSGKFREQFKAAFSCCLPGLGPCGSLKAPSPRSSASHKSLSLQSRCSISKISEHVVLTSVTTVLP
The value called pKi is obtained by taking minus log10 of the concentration in mol/L.

Cc1cnc(C(=O)N2CCC[C@@H](Nc3nc4ccccc4o3)[C@@H]2C)c(-n2nccn2)c1 : 7.68
COc1ccc(-n2nccn2)c(C(=O)N2CCC[C@@H](Nc3ccc(C(F)(F)F)cn3)[C@@H]2C)c1 (racemic) : 8.00
O=C(c1cc(F)ccc1-n1nccn1)N1[C@H](CF)[C@@H]2CC[C@H]1[C@H](Oc1ccc(C(F)(F)F)cn1)C2 : 6.99
Cc1ccc(-n2nccn2)c(C(=O)N2CC(COc3ccc(F)cn3)CC2C)c1 (racemic) : 6.64
Cc1ccc(-n2nccn2)c(C(=O)N2CCC[C@@H](Nc3cc(C)nc(C(F)(F)F)n3)[C@@H]2C)c1 (racemic) : 6.34
CC1C2CC(Oc3ccc(C(F)(F)F)cn3)C(C2)N1C(=O)c1cccc(F)c1-c1ncccn1 (single isomer, unassigned) : 7.80
Cc1ccc(-n2nccn2)c(C(=O)N2[C@H](C)[C@H]3C[C@@H](Oc4ccc(C(F)F)cn4)[C@@H]2C3)n1 : 8.30
Cc1ccc(N[C@@H]2CCCN(C(=O)c3ccccc3-n3nccn3)[C@H]2C)nc1 (racemic) : 7.15
C[C@@H]1[C@H]2C[C@@H](Oc3cnc(C(F)(F)F)cn3)[C@H](C2)N1C(=O)c1cc(F)ccc1-n1nccn1 (relative stereo) : 7.74
Cc1cc(C)nc(N[C@@H]2CCCN(C(=O)c3c(F)cccc3-n3nccn3)[C@H]2C)n1 (racemic) : 5.97

// query Which pKi value is on record for Cc1ccc(-n2nccn2)c(C(=O)N2[C@H](C)[C@H]3C[C@@H](Oc4cnc(C(F)(F)F)cn4)[C@@H]2C3)n1 (relative stereo) ?
// result 7.54

// query Queued: Cc1cnc(C(=O)N2CCC[C@@H](Nc3cnc(C(F)(F)F)cn3)[C@@H]2C)c(-c2ncco2)c1
// result 7.28

// query Queued: CC(C)CC1C2CC(Oc3ccc(C(F)(F)F)cn3)C(C2)N1C(=O)c1ccccc1-n1nccn1 (racemic)
// result 7.35

// query Also check C[C@@H]1[C@H]2C[C@@H](Oc3cnc(C(F)(F)F)cn3)[C@H](C2)N1C(=O)c1ncccc1-n1nccn1 (relative stereo)
// result 6.82
